Provide the recorded IC50 for the entries that follow.
Biological target: Human KLK1 (Homo sapiens (Human))
Sequence (P06870 25-262): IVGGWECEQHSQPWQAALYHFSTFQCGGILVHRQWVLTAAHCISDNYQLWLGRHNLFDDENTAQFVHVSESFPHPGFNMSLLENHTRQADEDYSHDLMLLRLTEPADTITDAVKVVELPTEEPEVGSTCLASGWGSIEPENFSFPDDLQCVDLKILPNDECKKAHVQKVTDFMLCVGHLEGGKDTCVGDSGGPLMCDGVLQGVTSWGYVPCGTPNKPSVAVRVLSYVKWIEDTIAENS

Look up IC50 for this compound: COCc1nn(Cc2ccc(Cn3ccccc3=O)cc2)cc1C(=O)NCc1cc(OC)c(C)cn1 [Example 20]
> 40 µM

Recorded IC50 for COCc1nn(Cc2ccc(Cn3ccccc3=O)cc2)cc1C(=O)NCc1ncc(F)cc1F [Example 26] , please?
> 40 µM

What measured IC50 goes with COCc1nn(Cc2cnc(N3CCC(F)(F)C3)nc2)cc1C(=O)NCc1cc(OC)ccc1-n1cnnn1 [Example 88] ?
> 40 µM

# lookup: IC50 of COCc1nn(Cc2ccc(Cn3ccccc3=O)cc2)cc1C(=O)NCc1cc(OC)cc(OC)c1 [Reference Example A, reference compound]
> 10 µM

GET /values?readout=IC50&item= COCc1nn(Cc2ccc(Cn3ccccc3=O)cc2)cc1C(=O)NCc1nc(C)ccc1F [Example 27]
> 40 µM

Name the recorded IC50 for COCc1nn(Cc2ccc(Cn3ccccc3=O)cc2)cc1C(=O)NCc1cccc(OC)c1C#N [Example 38] .
> 4 µM

Sample COCc1nn(Cc2ccc(Cn3ccccc3=O)cc2)cc1C(=O)NCc1c(Cl)cccc1-n1cnnn1 [Example 73] — what was its IC50?
> 4 µM

# get_value(readout='IC50', item= COCc1nn(Cc2ccc(Cn3ccccc3=O)cc2)cc1C(=O)NCc1ncc(Cl)cc1F [Example 17] )
> 40 µM

###

Test: Solubility in water and 0.1N HCl (aq)
Assay type: physicochemical
Conditions: thermodynamic from solid; water, incubated at 1 mg/mL, 37° C.; read-out: Solubility Water
Procedure: Solubility was determined in water and 0.1N HCl (aq). Test compounds were incubated at 1 mg/mL for 24 hrs at 37° C. on a shaking platform (500 rpm). Samples were taken at 1, 4 and 24 hrs and centrifuged at 15,000 g for 10 min. Test compound concentration in the supernatant was determined by LCMS against a standard curve.
measurement label: solubility
Reply with a number, then the unit it belongs to.

What does the record list as solubility for COCc1nn(Cc2ccc(Cn3ccccc3=O)cc2)cc1C(=O)NCc1cc(Cl)ccc1-n1cnnn1 [Example 72] ?
46 µg/mL

What does the record list as solubility for COCc1nn(Cc2cnc(N3CCCC3)nc2)cc1C(=O)NCc1c(-n2cnnn2)ccc(OC)c1F [Example 79] ?
93 µg/mL

Could you share which solubility value was measured for COCc1nn(Cc2cnc(N3CCC(F)(F)C3)nc2)cc1C(=O)NCc1c(-n2cnnn2)ccc(OC)c1F [Example 86] ?
1 µg/mL

Dear colleague, I am looking for the recorded solubility of the following compound: COCc1nn(Cc2ccc(Cn3ccccc3=O)cc2)cc1C(=O)NCc1c(-n2cnnn2)ccc(OC)c1F [Example 39]
7 µg/mL

Please report the recorded solubility for COCc1nn(Cc2ccc(Cn3ccccc3=O)cc2)cc1C(=O)NCc1nccc(OC)c1C [Example 22] .
60 µg/mL

Could you tell me which solubility is on file for COCc1nn(Cc2ccc(Cn3cc(F)ccc3=O)cc2)cc1C(=O)NCc1nccc(OC)c1F [Example 30] ?
290 µg/mL

Item COc1ccc(F)c(CNC(=O)c2cn(Cc3ccc(Cn4ccccc4=O)cc3)nc2N)c1F [Example 35] has what recorded solubility?
20 µg/mL

###

Target: Human FXIa (Homo sapiens (Human))
Sequence (P03951 388-625): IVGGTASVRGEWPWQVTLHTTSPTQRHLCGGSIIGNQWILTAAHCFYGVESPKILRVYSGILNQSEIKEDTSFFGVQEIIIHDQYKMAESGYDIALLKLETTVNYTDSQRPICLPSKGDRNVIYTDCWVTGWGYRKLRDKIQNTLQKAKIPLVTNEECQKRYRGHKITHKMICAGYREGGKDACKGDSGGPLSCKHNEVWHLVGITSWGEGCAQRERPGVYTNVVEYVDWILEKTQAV
Sequence (P03951 19-387): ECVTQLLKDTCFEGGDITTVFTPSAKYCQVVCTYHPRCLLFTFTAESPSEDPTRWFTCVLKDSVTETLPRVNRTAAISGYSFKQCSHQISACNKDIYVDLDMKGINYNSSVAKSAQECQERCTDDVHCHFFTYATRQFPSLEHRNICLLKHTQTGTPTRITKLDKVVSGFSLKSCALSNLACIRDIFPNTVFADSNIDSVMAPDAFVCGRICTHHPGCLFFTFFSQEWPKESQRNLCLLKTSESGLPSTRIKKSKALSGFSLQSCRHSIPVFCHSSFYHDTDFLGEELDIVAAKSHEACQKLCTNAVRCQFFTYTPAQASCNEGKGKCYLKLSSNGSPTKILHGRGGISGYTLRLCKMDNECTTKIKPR
Experiment: Determination of the % inhibition / IC50 for FXIa
Format: biochemical
Conditions: 40 μM test compound; read-out: % Inhibition @ 40 μM (human FXIa)
Our labelling divides records by inhibition at 40 µM into ranges: low-valued = under 7%, mid-valued = from 7% up to 90%, high-valued = 90% and over

Bin this entry: COc1ccc(C#N)c(CNC(=O)c2cn(Cc3ccc(Cn4ccccc4=O)cc3)nc2N(C)C)c1F
mid-valued

Class (by measured inhibition at 40 µM) for COCc1nn(Cc2ccc(Cn3ccccc3=O)cc2)cc1C(=O)NCc1ccccc1-n1cnnn1
mid-valued

Entry COCc1nn(Cc2ccc(N3CCCC3)nc2)cc1C(=O)NCc1c(-n2cnnn2)ccc(OC)c1F belongs to which category?
high-valued

GET /class?item= COCc1nn(Cc2ccc(Cn3ccccc3=O)cc2)cc1C(=O)NCc1cc(OC)ccc1-n1cnnn1
mid-valued

GET /class?item= COCc1nn(Cc2ccc(Cn3ccccc3=O)cc2)cc1C(=O)NCc1cc(OC)c(C)cn1
low-valued

Class? Entry: COc1ccc(F)c(CNC(=O)c2cn(Cc3ccc(Cn4ccccc4=O)cc3)nc2N)c1F
low-valued

Exam item: assign COCc1nn(Cc2cnc(N3CCC(F)(F)C3)nc2)cc1C(=O)NCc1c(-n2cnnn2)ccc(OC)c1F to the correct category.
high-valued

The entry to classify is COc1ccc(C#N)c(CNC(=O)c2cn(Cc3ccc(Cn4ccccc4=O)cc3)nc2N)c1F ; which class holds it?
mid-valued

Please let me know in which category the item COc1ccnc(CNC(=O)c2cn(Cc3ccc(Cn4ccccc4=O)cc3)nc2C(F)(F)F)c1F belongs.
low-valued

Exercise: read the entry COCc1nn(Cc2cnc(N3CCCC3)nc2)cc1C(=O)NCc1c(-n2cnnn2)ccc(OC)c1F and state which class it falls under.
high-valued

Pick a category. Item: COCc1nn(Cc2ccc(Cn3cc(F)ccc3=O)cc2)cc1C(=O)NCc1c(C#N)ccc(OC)c1F
low-valued

###

Test: Intrinsic clearance in human liver microsomes
Type: in vitro ADME
Settings: human liver microsomes 0.5 mg/mL, 5 μM test compound, 37° C.; read-out: Human liver microsome (Clint μL/min/mg protein)
Record form. Attribute: microsomal CLint at 5 μM. Fill in for each entry.
Return type: number; implicit unit µL/min/mg.

May I ask what microsomal CLint at 5 μM has been recorded for COCc1nn(Cc2ccc(Cn3cc(C)cn3)cc2)cc1C(=O)NCc1nccc(OC)c1F [Example 1] ?
33

Fill in: microsomal CLint at 5 μM of COCc1nn(Cc2ccc(Cn3ccccc3=O)cc2)cc1C(=O)NCc1c(C(N)=O)ccc(OC)c1F [Example 42] is ___
8

Entry COCc1nn(Cc2ccc(N3CCCC3)nc2)cc1C(=O)NCc1c(-n2cnnn2)ccc(OC)c1F [Example 77] has what microsomal CLint at 5 μM?
29

Recorded microsomal CLint at 5 μM for COc1ccc(C#N)c(CNC(=O)c2cn(Cc3ccc(Cn4ccccc4=O)cc3)nc2N(C)C)c1F [Example 44] , please?
162

May I ask what microsomal CLint at 5 μM has been recorded for COCc1nn(Cc2ccc(Cn3cc(F)ccc3=O)cc2)cc1C(=O)NCc1c(C#N)ccc(OC)c1F [Example 53] ?
104

Entry under review: COc1ccc(F)c(CNC(=O)c2cn(Cc3ccc(Cn4ccccc4=O)cc3)nc2N)c1F [Example 35] . Reported microsomal CLint at 5 μM?
24

Which microsomal CLint at 5 μM reading was recorded for the compound COCc1nn(Cc2ccc(Cn3cc(F)ccc3=O)cc2)cc1C(=O)NCc1nccc(OC)c1F [Example 30] ?
20

Record request: microsomal CLint at 5 μM value, item COCc1nn(Cc2ccc(Cn3ccccc3=O)cc2)cc1C(=O)NCc1cc(F)ccc1-n1cnnn1 [Example 49]
18

I have this compound here, COc1ccnc(CNC(=O)c2cn(Cc3ccc(Cn4ccccc4=O)cc3)nc2N)c1F [Example 5] , and I need its recorded microsomal CLint at 5 μM.
3

Param item = COCc1nn(Cc2ccc(Cn3cc(C)cn3)cc2)cc1C(=O)NCc1cc(OC)ccc1-n1cnnn1 [Example 61] ; retrieve measured microsomal CLint at 5 μM.
55

Please report the recorded microsomal CLint at 5 μM for COCc1nn(Cc2ccc(Cn3ccccc3=O)cc2)cc1C(=O)NCc1c(-n2cnnn2)ccc(OC)c1F [Example 39] .
29

Suppose we examine the compound COCc1nn(Cc2ccc(Cn3ccccc3=O)nc2)cc1C(=O)NCc1c(C#N)ccc(OC)c1F [Example 52] ; what microsomal CLint at 5 μM value has been reported?
16

Item under review: COCc1nn(Cc2cnc(N3CCC(F)(F)C3)nc2)cc1C(=O)NCc1c(-n2cnnn2)ccc(OC)c1F [Example 86] . Reported microsomal CLint at 5 μM?
4

Param item = COc1ccnc(CNC(=O)c2cn(Cc3ccc(Cn4ccccc4=O)cc3)nc2N(C)C)c1F [Example 7] ; retrieve measured microsomal CLint at 5 μM.
22

Reported microsomal CLint at 5 μM for COc1ccc(C#N)c(CNC(=O)c2cn(Cc3ccc(Cn4ccccc4=O)cc3)nc2N)c1F [Example 43] : what is it?
10

Would you kindly share the measured microsomal CLint at 5 μM for COCc1nn(Cc2ccc(Cn3ccccc3=O)cc2)cc1C(=O)NCc1c(F)cccc1-n1cnnn1 [Reference Example H, reference compound] ?
25

###

Biological target: Human plasma kallikrein (Homo sapiens (Human))
Sequence (P03952 391-638): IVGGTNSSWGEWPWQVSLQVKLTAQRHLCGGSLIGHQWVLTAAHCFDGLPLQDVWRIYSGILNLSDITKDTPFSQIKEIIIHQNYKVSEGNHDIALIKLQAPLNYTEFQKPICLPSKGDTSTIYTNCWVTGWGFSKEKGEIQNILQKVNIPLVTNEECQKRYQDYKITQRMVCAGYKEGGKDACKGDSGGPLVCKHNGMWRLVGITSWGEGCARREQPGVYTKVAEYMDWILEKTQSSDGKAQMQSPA
Sequence (P03952 20-390): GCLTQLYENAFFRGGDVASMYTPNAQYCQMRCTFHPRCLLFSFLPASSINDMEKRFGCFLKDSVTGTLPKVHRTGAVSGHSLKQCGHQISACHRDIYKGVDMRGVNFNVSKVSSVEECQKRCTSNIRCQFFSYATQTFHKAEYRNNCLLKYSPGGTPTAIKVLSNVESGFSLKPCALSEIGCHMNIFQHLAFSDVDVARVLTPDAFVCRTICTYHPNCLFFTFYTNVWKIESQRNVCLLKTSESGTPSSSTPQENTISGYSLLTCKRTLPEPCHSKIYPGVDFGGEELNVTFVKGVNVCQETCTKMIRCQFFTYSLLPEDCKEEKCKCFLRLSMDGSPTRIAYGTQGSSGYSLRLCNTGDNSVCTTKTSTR
Assay: Determination of the Ki for plasma kallikrein (mixed-model inhibition)
Details: human plasma kallikrein, mixed-model inhibition equation
measurement label: pKi
The meaning of pKi here: minus log10 of the concentration in molar units.

Look up pKi: COCc1nn(Cc2cnc(N3CCC(F)(F)C3)nc2)cc1C(=O)NCc1c(-n2cnnn2)ccc(OC)c1F
9.55

I have this compound here, COc1cccc(CNC(=O)c2cn(Cc3ccc(Cn4ccccc4=O)cc3)nc2N)c1F [Reference Example B, reference compound] , and I need its recorded pKi.
8.17

I'd like to know its pKi. The compound in question is COCc1nn(Cc2cnc(N3CCC(F)(F)C3)nc2)cc1C(=O)NCc1cc(OC)ccc1-n1cnnn1
8.54

Tell me the measured pKi of COCc1nn(Cc2ccc(Cn3ccccc3=O)cc2)cc1C(=O)NCc1nccc(OC)c1C , please.
8.72

Tell me the measured pKi of COCc1nn(Cc2cnc(N3CCCC3)nc2)cc1C(=O)NCc1cc(OC)ccc1-n1cnnn1 , please.
8.62

May I ask what pKi has been recorded for COCc1nn(Cc2ccc(Cn3ccccc3=O)cc2)cc1C(=O)NCc1c(F)cccc1-n1cnnn1 [Reference Example H, reference compound] ?
9.28

Record request: pKi value, item COCc1nn(Cc2ccc(N3CCCC3)nc2)cc1C(=O)NCc1c(-n2cnnn2)ccc(OC)c1F
9.77

Field request: pKi | item: COCc1nn(Cc2ccc(Cn3ccccc3=O)cc2)cc1C(=O)NCc1cc(OC)ccc1-n1cnnn1
10.00

Entry under review: COCc1nn(Cc2ccc(Cn3ccccc3=O)cc2)cc1C(=O)NCc1c(-n2cnnn2)ccc(OC)c1F . Reported pKi?
9.59

// query pKi value for entry COCc1nn(Cc2ccc(Cn3cc(C)cn3)cc2)cc1C(=O)NCc1c(-n2cnnn2)ccc(OC)c1F
9.52

Find the recorded pKi belonging to COCc1nn(Cc2ccc(Cn3ccccc3=O)cc2)cc1C(=O)NCc1cc(Cl)ccc1-n1cnnn1 and report it.
9.80

// lookup pKi for COc1ccc(-n2cnnn2)c(CNC(=O)c2cn(Cc3ccc(N4CCCC4)nc3)nc2C(F)(F)F)c1F
9.28
